Measured values drawn from PubChem BioAssay AID1903 for this set.

target: Large T antigen (Simian virus 40); assay: SV40 large T antigen inhibitors, biochemical (AID 1903); details: SV40 large T antigen ATPase/helicase inhibition assay; at 20 µM; hits give high values
Hit rate of the full screen: of about 310,000 compounds, about 1,200 (0.39%) were called active. These entries were drawn from the full list. Measured potencies and affinities stand elsewhere.
For each entry below, report its inhibition value.
One number for each entry, in %.

See these solved cases before continuing.
compound: Cc1ccc(Cl)cc1Nc1nc(-c2cccnc2)cs1
inhibition (%): 5.81
--
compound: Brc1ccc(-c2nc3ncccn3c2NC2CCCCC2)o1
inhibition (%): 12.4
--
compound: O=S(=O)(c1ccccc1)N1CCN(Cc2ccc(Cl)cc2)CC1
inhibition (%): 10.3
--
compound: O=C(Nc1ccc(F)cc1)C(=O)C1C(=O)Nc2ccccc21 (centres undefined)
inhibition (%): 16.2
--
compound: O=C(N/N=C/c1ccc2c(c1)OCO2)c1ccccn1
inhibition (%): 9.83

Field: inhibition. Fill in for each record below.
1. COc1ccccc1N1CCN(C(CNS(C)(=O)=O)c2cccnc2)CC1 (centres undefined)
2. CCn1cc(C(=O)Nc2ccc(F)c(F)c2)cn1
3. Cc1ccc(-c2n[nH]c(=S)n2C)cc1
4. Oc1cccc(NC(=S)Nc2ccccc2)c1

A.
[10, 16, 14.5, 21.3]

Give inhibition for all compounds that follow.
1. CC(C)(C)OC(=O)[C@H](Cc1ccccc1)NC(=O)c1nc[nH]c1C(=O)N1CCN(c2ccccc2)CC1
2. COc1ccc(Nc2ccccc2C(=O)O)cc1
3. Clc1cc(Cl)cc(C2=NC(Cc3ccccc3)CO2)c1 (centres undefined)

A.
[10.9, 31.6, 4.6]

// input: 2 compounds below; output: inhibition for each
1. CCCCC(CC)CNC(=O)c1cccs1 (centres undefined)
2. CCCSc1oc(-c2ccco2)nc1S(=O)(=O)c1ccccc1

A.
1: 0.58; 2: 1.06

Provide the reported inhibition of each entry below, same order.
1. CCCCC(CC)CNC(=O)c1ncn[nH]1 (centres undefined)
2. Cc1ccc(NC(=O)C(=O)C2C(=O)Nc3ccccc32)cc1 (centres undefined)
3. CCCCc1nnc(NC(=O)C2CCN(c3ncnc4sc(C)c(C)c34)CC2)s1
4. CCOc1ccc(N2C(=O)CC(N3CCN(C(=O)CN4CCCC4)CC3)C2=O)cc1 (centres undefined)
5. CC(O)c1nc2cc([N+](=O)[O-])ccc2n1Cc1ccccc1 (centres undefined)
6. Cc1occc1C(=O)Nc1sc2c(c1C(N)=O)CCC(C(C)(C)C)C2 (centres undefined)
7. CS(=O)(=O)N1CCN(c2ncnc3c2cnn3-c2ccccc2)CC1
8. CCCCCSc1nnc2c(n1)OC(C)N(C(C)=O)c1ccccc1-2 (centres undefined)

A.
[9.07, 6.13, 6.43, 15.8, 7.32, 16.6, 1.55, 5.71]

Items follow; give inhibition for each.
1. O=C(OCC(=O)N1CCCc2ccccc21)c1cc(S(=O)(=O)N2CCOCC2)ccc1Cl
2. Cc1cccc(Nc2ncc3c(n2)CC(C)CC3=O)c1 (centres undefined)

A.
[15.5, 7.64]

###

target: Large T antigen (Simian virus 40) (UniProt P03070); experiment: SV40 large T antigen inhibitors, biochemical (AID 1903); conditions: SV40 large T antigen ATPase/helicase inhibition assay; at 20 µM; hits give high values
Sequence (P03070 whole entry, looked up): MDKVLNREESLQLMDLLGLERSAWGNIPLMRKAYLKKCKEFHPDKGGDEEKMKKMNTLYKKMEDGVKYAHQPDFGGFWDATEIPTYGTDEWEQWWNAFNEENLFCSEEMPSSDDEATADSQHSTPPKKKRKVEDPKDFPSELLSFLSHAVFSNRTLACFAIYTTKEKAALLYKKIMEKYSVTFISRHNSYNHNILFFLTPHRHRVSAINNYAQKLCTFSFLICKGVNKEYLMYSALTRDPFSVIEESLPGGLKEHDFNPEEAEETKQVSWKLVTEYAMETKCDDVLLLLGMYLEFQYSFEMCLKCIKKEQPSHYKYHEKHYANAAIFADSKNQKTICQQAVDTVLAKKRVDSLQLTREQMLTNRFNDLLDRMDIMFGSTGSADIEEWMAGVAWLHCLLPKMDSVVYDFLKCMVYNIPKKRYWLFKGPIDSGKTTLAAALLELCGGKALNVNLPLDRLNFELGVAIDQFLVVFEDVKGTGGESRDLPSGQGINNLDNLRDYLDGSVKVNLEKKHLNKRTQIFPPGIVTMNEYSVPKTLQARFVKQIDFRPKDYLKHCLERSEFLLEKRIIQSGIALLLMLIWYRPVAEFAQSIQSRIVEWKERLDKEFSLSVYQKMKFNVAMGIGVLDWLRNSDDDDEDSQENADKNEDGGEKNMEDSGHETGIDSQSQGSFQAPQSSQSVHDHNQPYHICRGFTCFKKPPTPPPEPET
The campaign covered roughly 310,000 compounds. About 1,200 (0.39%) were called active. Only a sample is shown. Potency and affinity values are given separately.
What inhibition was measured for each of the following?
Numbers only, in %.

compound: CC(C)CCN1CCN(Cc2cccc3cccnc23)CC1CCO (configuration not stated)
system.name: Large T antigen (Simian virus 40) (UniProt P03070)
quantitative.result: -6.36

Give inhibition for each of the items listed below.
1. CC(=O)Nc1ccc(NC(=O)c2ccccc2F)cc1
2. c1ccc(N2CCN(c3nc(-c4cccs4)nc4ccccc34)CC2)cc1
3. O=C1NC(=O)/C(=C\c2ccc(N3CCOCC3)o2)N1
4. CCOC(=O)CN1C(=O)S/C(=C/c2ccc(N3CCCCC3)o2)C1=O
5. CCN(CC)S(=O)(=O)c1ccc(NC(=O)CCNC(=O)c2ccco2)cc1
6. O=C(Nc1ccc(F)cc1)c1ccccc1F
7. O=C(Nc1ccc(NC(=O)c2ccco2)cc1)c1ccco1
8. Cc1ccc(NC(=O)CCNC(=O)c2ccco2)cc1

A.
[2.47, 17.6, 12.2, -40.7, 7.03, 12.9, 3.69, 1]

Required: inhibition, one value per compound below.
1. Cc1ccc(C)n1-c1sc2c(c1C#N)CCCC2
2. COC(=O)c1ccc(NC(=O)C2CCCN(S(C)(=O)=O)C2)cc1 (configuration not stated)
3. COC(=O)CN1C(=O)S/C(=C/c2ccc(N3CCCCC3)o2)C1=O

A.
1. 7.49
2. 3.57
3. 22.2

###

target: Large T antigen (Simian virus 40) (UniProt P03070); assay: SV40 large T antigen inhibitors, biochemical (AID 1903); conditions: SV40 large T antigen ATPase/helicase inhibition assay; at 20 µM; hits give high values
Among all 310,000 compounds or so, about 1,200 (0.39%) were called active. These entries were drawn from the full list. Measured potencies and affinities stand elsewhere.
Each entry gets Not met if its inhibition stays under 10%, and Met if its inhibition is 10% or above.

Answered cases to consult:
compound: COc1ccc(NC(=O)CN(C)C(=O)Cc2ccc3c(c2)OCCO3)cc1
class.label: Not met

compound: OCCc1ccc(O)cc1
class.label: Met

compound: COc1cc(/C=N/n2nnnc2N)ccc1OC(C)=O
class.label: Met

compound: COc1cc(NC(=O)C2=C(N3CCOCC3)/C(=C\c3ccc(Br)cc3)CC2)cc(OC)c1OC
class.label: Not met

Q. Please tell me: is the compound O=C(Nc1ccc(Nc2ccccc2)cc1)c1ccccc1 at or over 10% in terms of inhibition?
A. Met

Q. Then this compound: CC/C(=N\Nc1nncc2ccccc12)c1ccc(F)cc1
A. Not met

###

target: Large T antigen (Simian virus 40) (UniProt P03070); assay: SV40 large T antigen inhibitors, biochemical (AID 1903); conditions: SV40 large T antigen ATPase/helicase inhibition assay; at 20 µM; hits give high values
Among all 310,000 compounds or so, about 1,200 (0.39%) were called active. These entries were drawn from the full list. Potency and affinity values are given separately.
Everything with inhibition lower than 30% is False; everything else, including exactly 30%, is True.

Consider the worked cases shown below.
smiles.input: C/C(=N\NC(=O)CSc1nnc(C)s1)c1ccc(O)cc1
class.label: False
//
smiles.input: C/C(=N\NC(=O)CSc1nc2ccccc2[nH]1)c1ccncc1
class.label: False
//
smiles.input: CCOC(=O)/C(C#N)=C\c1ccc(O)c(OC)c1
class.label: True
//
smiles.input: N#C/C(=C/c1ccc(O)c(O)c1)C(=O)NCc1ccc(Cl)cc1
class.label: True
//
smiles.input: COc1cc(/C(C)=N\NC(=O)CSc2nc3ccccc3n2C)ccc1O
class.label: False

--- query ---
Q. Could you please find out whether COc1ccc(/C(C)=N\NC(=O)CSc2nnc(C)s2)cc1 has inhibition that meets 30% or exceeds it?
A. False

###

biological target: Large T antigen (Simian virus 40) (UniProt P03070); assay: SV40 large T antigen inhibitors, biochemical (AID 1903); settings: SV40 large T antigen ATPase/helicase inhibition assay; at 20 µM; hits give high values
The whole screen tested about 310,000 compounds, of which about 1,200 (0.39%) were called active. A selection follows. Entries with a potency or affinity are not part of this list.
endpoint.label: inhibition

Solved entries (count: 6):
compound: O=C(O)CCCc1ccc2c(c1)CCc1ccccc1-2
system.name: Large T antigen (Simian virus 40) (UniProt P03070)
inhibition: 4.11% (inactive)
//
compound: CC(=O)Nc1ccc2c(c1)CCc1ccccc1-2
system.name: Large T antigen (Simian virus 40) (UniProt P03070)
inhibition: 2.87% (inactive)
//
compound: COc1ccc(C=O)cc1CN1C(=O)c2ccccc2C1=O
system.name: Large T antigen (Simian virus 40) (UniProt P03070)
inhibition: 0.06% (inactive)
//
compound: CCN(CC)S(=O)(=O)c1cccc(-c2cn3cc(C)ccc3n2)c1
system.name: Large T antigen (Simian virus 40) (UniProt P03070)
inhibition: 8.06% (inactive)
//
compound: CC(C)OC(=O)C(C(=O)C(F)(F)F)c1cc(NS(=O)(=O)c2ccc3ccccc3c2)c2ccccc2c1O (stereo unspecified)
system.name: Large T antigen (Simian virus 40) (UniProt P03070)
inhibition: 15.1% (inactive)
//
compound: CCn1c(CC(=O)Nc2ccc(C)c(Cl)c2)nnc1SCc1ccc(Cl)c(Cl)c1
system.name: Large T antigen (Simian virus 40) (UniProt P03070)
inhibition: 2.82% (inactive)

For each of the compounds below, note its inhibition.
1. CCOc1ccccc1/C=N/n1c(COc2ccccc2)n[nH]c1=S
2. COc1ccc(C)cc1CN1C(=O)c2ccccc2C1=O
3. COC(=O)c1ccccc1NC(=O)c1cnn2c(C)cc(C)nc12
4. O=C(Nc1ccccc1F)c1ccccc1C(=O)Nc1ccccc1F
5. Cc1cc(C)n(CC(=O)NC2CCCc3c2cnn3-c2ccc(C)c(C)c2)n1 (stereo unspecified)

A.
1. 14.8% (inactive)
2. 2.66% (inactive)
3. -5.22% (inactive)
4. 14.6% (inactive)
5. 2.04% (inactive)
